assay: gradient 5% acetonitrile 3 min, to 50% in 2 min, to 85% in 15 min, held 3 min, 100 µL/min; settings: column: Zorbax Extend-C18 2.1 x 50 mm; eluents: water / acetonitrile, 0.1% formic acid
# RP-LC retention time >= 800 s gives TRUE, anything below gives FALSE

Study these solved cases before continuing.
Cc1ccc(C(CNC(=O)c2cc(=O)c3ccccc3o2)N(C)C)cc1 (stereo unspecified)	FALSE
CCc1cc(-c2csc(S(=O)(=O)Nc3ccc(C)cc3Br)c2)on1	TRUE
CCCn1nc(CNC(=O)Cc2cccs2)c2ccccc21	TRUE
O=C(Nc1cccc(-c2nc3ccccc3o2)c1)c1ccc(F)cc1F	TRUE
COc1ccccc1CCNC(=O)Cc1csc(NC(=O)c2ccco2)n1	FALSE
CC(Cc1cccs1)NC(=O)NCc1cccc2ccccc12 (stereo unspecified)	TRUE

# bool: RP-LC retention time of `O=C(CCSc1ccc(F)cc1)Nc1ccccc1-c1nc2ccccc2[nH]1` >= 800 s TRUE

Hi, just wondering whether `CCn1cc(-c2nc(C)c(C(=O)NCc3ccncc3)s2)c2cccnc21` shows RP-LC retention time of 800 s or higher. FALSE

I'd appreciate it if you could say whether CC(=O)N1CCc2cc(N3CC(C(=O)Nc4ccc(F)c(Cl)c4)CC3=O)ccc21 (stereo unspecified) has RP-LC retention time at least equal to 800 s. FALSE
